testedTarget: T1, recombinant human CD3ε-CD3δ heterodimeric protein (CD3εδ) (Homo sapiens)
T1 construct: human CD3ε of the recombinant CD3εδ heterodimer; human CD3δ of the recombinant CD3εδ heterodimer; source: in-house prepared
T1 chain 1: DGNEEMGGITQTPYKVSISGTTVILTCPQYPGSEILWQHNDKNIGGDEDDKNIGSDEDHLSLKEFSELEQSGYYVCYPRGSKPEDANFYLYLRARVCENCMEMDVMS
T1 chain 2: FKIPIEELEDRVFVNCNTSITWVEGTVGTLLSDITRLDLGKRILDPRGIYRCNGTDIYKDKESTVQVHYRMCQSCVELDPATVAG
measurementNotes: SPR; Biacore T200, 37 °C, pH 7.4, PB-P+; antibody captured (630 RU) by anti-mouse IgG (Fc) antibody on a CM4 chip; human CD3εδ as analyte, 18.8-19,200 nmol/L (mHIT3a, mOKT3) or 75-76,800 nmol/L (m12F6); steady state model
appliedConditions: both partners purified
We begin with a simple list: items and their reported pKd.
Worth noting: pKd values are minus log10 of concentrations stated in mol/L.

Before answering, review these 2 worked examples.
binder: m12F6 mIgG1, homodimeric antibody without FAST-Ig mutations (antibody, V domains shown, VH of the original mouse antibody m12F6; mouse IgG1 (mIgG1) heavy chain constant region; numbers count on: Eu numbering; VL of the original mouse antibody m12F6; mouse kappa light chain constant region (CL); Whole IgG of one HC and one LC; also called anti-CD3; H2L2H2L2; source: Expi293F, transiently expressed, purified (Ab-Capcher MAG2 or MonoSpin ProG); copies: 2 + 2) VH: QVQLQQSGAELARPGASVKMSCKASGYTFTSYTMHWVKQRPGQGLEWIGYINPSSGYTKYNQKFKDKATLTADKSSSTAYMQLSSLTSEDSAVYYCARWQDYDVYFDYWGQGTTLTVSS VL: QIVLSQSPAILSASPGEKVTMTCRASSSVSYMHWYQQKPGSSPKPWIYATSNLASGVPARFSGSGSGTSYSLTISRVEAEDAATYYCQQWSSNPPTFGGGTKLETK
pKd: 4.77
//
binder: m12F6 mIgG2a V1+C19, homodimeric antibody with FAST-Ig V1+C19 mutations (antibody, V domains shown, VH of m12F6; mouse IgG2a (mIgG2a) heavy chain constant region; numbers count on: Eu numbering; VL of m12F6; mouse kappa light chain constant region (CL); numbers count on: Kabat numbering; Whole IgG of one HC and one LC; also called anti-CD3; H2L2H2L2; source: Expi293F, transiently expressed, purified (Ab-Capcher MAG2, MonoSpin ProA or MonoSpin ProG); copies: 2 + 2) VH: QVQLQQSGAELARPGASVKMSCKASGYTFTSYTMHWVKERPGQGLEWIGYINPSSGYTKYNQKFKDKATLTADKSSSTAYMQLSSLTSEDSAVYYCARWQDYDVYFDYWGQGTTLTVSS VL: QIVLSQSPAILSASPGEKVTMTCRASSSVSYMHWYQKKPGSSPKPWIYATSNLASGVPARFSGSGSGTSYSLTISRVEAEDAATYYCQQWSSNPPTFGGGTKLETK
pKd: 4.79

Need pKd, item m12F6 mIgG2a, homodimeric antibody without FAST-Ig mutations (antibody, V domains shown, VH of the original mouse antibody m12F6; mouse IgG2a (mIgG2a) heavy chain constant region; numbers count on: Eu numbering; VL of the original mouse antibody m12F6; mouse kappa light chain constant region (CL); Whole IgG of one HC and one LC; also called anti-CD3; H2L2H2L2; source: Expi293F, transiently expressed, purified (Ab-Capcher MAG2, MonoSpin ProA or MonoSpin ProG); copies: 2 + 2) VH: QVQLQQSGAELARPGASVKMSCKASGYTFTSYTMHWVKQRPGQGLEWIGYINPSSGYTKYNQKFKDKATLTADKSSSTAYMQLSSLTSEDSAVYYCARWQDYDVYFDYWGQGTTLTVSS VL: QIVLSQSPAILSASPGEKVTMTCRASSSVSYMHWYQQKPGSSPKPWIYATSNLASGVPARFSGSGSGTSYSLTISRVEAEDAATYYCQQWSSNPPTFGGGTKLETK
4.78

All values here come from paper PMC10801562.
